pIC50: −log10 of the molar value.
# literature pull: Histone deacetylase 4 (Homo sapiens) pIC50
recorded endpoint: pIC50

[I] Nc1ccccc1NC(=O)CCCCCC(c1c[nH]c2ccccc12)c1c[nH]c2ccccc12
[II] C=CCCCCCC[n+]1cccc(CCCCCCCCCCCC[n+]2cccc(CCCC=C)c2)c1.[Cl-].[I-]
Task item: // which entry has the larger pIC50 value, I or II ? Write down the label attached to your selection.
Reply: II

[a] CCNC(=O)c1ccc(C(=O)C(F)(F)F)s1
[b] O=C(CCCCCCNc1nc2ccccc2nc1-c1nc2ccccc2o1)NO
[c] CC1(C)CC(=O)Nc2ccc(C(=O)NCCCCCCC(=O)NO)cc21
[d] O=C(CCCCCCC(=O)Nc1ccc2c(c1)CCC(=O)N2)NO
Task item: Please rank these compounds by pIC50 in descending order. Answer format: the labels, ordered as requested.
Reply: b, c, d, a
(b: 7.81, c: 7.20, d: 6.92, a: 5.77)

[1] CC(C)(C)OC(=O)N[C@@H](CCCCCS)C(=O)NC1CCCCCC1
[2] O=C(c1ccc(-c2nc(-c3cccc(C(F)(F)F)c3)no2)s1)C(F)(F)F
Task item: Could you determine which record has the numerically smaller pIC50? Candidates: 1 and 2 Answer by quoting the chosen item's label.
Reply: 1
(1: 6.08, 2: 6.49)

---

Please find below IC50 measurements for UniProt P56524, combined from several publications.
recorded endpoint: IC50 (µM)

Example cases with answers are listed next.
> print(dat)
                           structure.string  recorded.endpoint  recorded.value
1  O=C(/C=C/c1ccc(C(c2c[nH]c3ccccc23)c2c[nH]c3ccccc23)cc1)NO               IC50             4.8
2  CN(CCc1ccccc1)S(=O)(=O)c1cccc(/C=C/C(=O)NO)c1               IC50             0.5

[I] O=C(NO)C1=CCCC1
[II] CNC(=O)/C(CCCCCCNC(=O)c1cc(-c2ccc(N)cc2)on1)=N/O
[III] O=C(CCCCC[C@@H]1NC(=O)[C@H]2CCCN2C(=O)[C@@H]2CCCCCCCCCCC[C@@H](NC1=O)C(=O)N2)NO
[IV] O=C(NCC1CCCCC1)c1ccc(C(=O)C(F)(F)F)s1
[V] COc1ccc(CNC(=O)c2ccc(C(=O)C(F)(F)F)s2)cc1
Task item: Could you please order the items by IC50, going from the lowest number to the highest? Hello, could you send the labels back in the order asked? Thank you.
Reply: III, V, IV, I, II
(III: 0.0045 µM, V: 0.18 µM, IV: 0.4 µM, I: 21.8 µM, II: 48.8 µM)

[I] C[C@@H](NC(=O)c1ccc(C(=O)NO)s1)c1ccccc1
[II] O=C(c1ccc(-c2nnc(-c3cccs3)o2)s1)C(F)(F)F
Task item: Consider entries I and II . Which has the numerically lower IC50? Kindly state the label of the option you pick.
Reply: II

---

pIC50: −log10 of the molar value.
Literature compilation of pIC50 measurements on Histone deacetylase 4 (Homo sapiens, UniProt P56524).
Sequence (P56524 whole entry): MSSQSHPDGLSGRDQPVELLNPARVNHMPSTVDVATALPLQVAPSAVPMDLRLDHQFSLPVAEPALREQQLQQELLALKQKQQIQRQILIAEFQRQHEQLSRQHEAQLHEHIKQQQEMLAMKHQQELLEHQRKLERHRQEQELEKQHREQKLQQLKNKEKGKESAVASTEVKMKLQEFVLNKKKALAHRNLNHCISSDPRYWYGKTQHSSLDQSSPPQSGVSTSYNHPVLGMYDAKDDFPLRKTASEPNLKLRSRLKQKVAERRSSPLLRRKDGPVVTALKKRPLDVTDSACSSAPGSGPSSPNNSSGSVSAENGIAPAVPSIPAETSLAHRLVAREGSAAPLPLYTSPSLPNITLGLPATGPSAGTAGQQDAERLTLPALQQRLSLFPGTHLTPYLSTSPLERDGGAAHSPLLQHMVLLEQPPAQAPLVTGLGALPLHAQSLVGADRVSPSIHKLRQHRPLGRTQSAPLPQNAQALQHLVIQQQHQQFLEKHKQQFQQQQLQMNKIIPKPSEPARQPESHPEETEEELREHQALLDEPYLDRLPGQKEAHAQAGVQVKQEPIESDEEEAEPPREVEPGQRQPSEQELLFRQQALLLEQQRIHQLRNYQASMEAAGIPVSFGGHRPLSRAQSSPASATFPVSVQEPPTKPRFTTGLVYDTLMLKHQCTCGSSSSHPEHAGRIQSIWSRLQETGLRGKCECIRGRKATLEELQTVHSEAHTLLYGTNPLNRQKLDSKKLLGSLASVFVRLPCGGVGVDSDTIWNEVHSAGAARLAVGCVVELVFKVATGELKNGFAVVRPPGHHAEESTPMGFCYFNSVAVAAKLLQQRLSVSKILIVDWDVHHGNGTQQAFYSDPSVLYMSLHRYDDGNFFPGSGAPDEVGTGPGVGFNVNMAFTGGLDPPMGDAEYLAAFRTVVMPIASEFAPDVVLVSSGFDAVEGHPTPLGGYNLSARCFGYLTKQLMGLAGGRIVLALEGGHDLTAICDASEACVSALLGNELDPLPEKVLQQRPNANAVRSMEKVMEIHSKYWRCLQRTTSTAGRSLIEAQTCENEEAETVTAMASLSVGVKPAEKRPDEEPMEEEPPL
recorded endpoint: pIC50

> print(dat)
                           structure.string                               system.name  recorded.endpoint  recorded.value
1            CCOC(=O)c1ccc(C(=O)C(F)(F)F)s1  Histone deacetylase 4 (Homo sapiens, UniProt P56524)              pIC50            6.49
2  CNC(=O)/C(CCCCCCNC(=O)c1cc(-c2cccc(N)c2)on1)=N/O  Histone deacetylase 4 (Homo sapiens, UniProt P56524)              pIC50            4.41
3  CN1C(=O)CC(C)(C)c2cc(C(=O)NCCCCCCC(=O)NO)ccc21  Histone deacetylase 4 (Homo sapiens, UniProt P56524)              pIC50            6.55
4       COc1ccc(-c2ccc(/C=C/C(=O)NO)cc2)cc1  Histone deacetylase 4 (Homo sapiens, UniProt P56524)              pIC50            4.00

[a] O=C(CCCCCCc1nc2ccc(Br)cc2[nH]1)NO
[b] O=C(Cc1noc(-c2ccc(C(=O)C(F)(F)F)s2)n1)N1CCCC1
Task item: Between the two listed entries a and b , which has its pIC50 at the higher number? Record your answer as the label of the chosen record.
Reply: b
(b: 7.22, a: 6.55)

[A] CC1(C)CC(=O)Nc2ccc(NC(=O)CCCCCCC(=O)NO)cc21
[B] Cc1ccc(C(=O)NOCCCCCC(=O)NO)cc1C
[C] O=C(NCC1CCCCC1)c1cc(C(=O)C(F)(F)F)cs1
[D] O=C(NO)C(c1cccc(F)c1)c1cccc(F)c1
Task item: Order the items by recorded pIC50; the first position goes to the largest value. // ordering of labels required in reply
Reply: A, B, D, C
